- Tested Target: G6PD (Homo sapiens, UniProt P11413)
- Sequence (P11413 2-515 limits assumed): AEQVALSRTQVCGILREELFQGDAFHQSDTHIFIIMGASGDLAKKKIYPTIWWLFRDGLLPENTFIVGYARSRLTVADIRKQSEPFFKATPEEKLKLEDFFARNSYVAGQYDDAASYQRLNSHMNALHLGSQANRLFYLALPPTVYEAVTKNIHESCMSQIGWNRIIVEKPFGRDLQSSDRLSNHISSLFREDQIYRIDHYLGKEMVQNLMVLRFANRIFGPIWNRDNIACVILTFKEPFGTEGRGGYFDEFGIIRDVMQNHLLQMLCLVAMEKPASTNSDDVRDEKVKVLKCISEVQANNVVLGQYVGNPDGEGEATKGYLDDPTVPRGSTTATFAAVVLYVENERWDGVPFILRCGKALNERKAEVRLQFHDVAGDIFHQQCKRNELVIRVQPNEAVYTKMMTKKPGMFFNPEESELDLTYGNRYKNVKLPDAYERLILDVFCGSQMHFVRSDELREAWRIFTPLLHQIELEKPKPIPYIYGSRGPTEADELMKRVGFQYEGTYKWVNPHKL
- Experimental Protocol: decrease in G6PD activity in synovial lining cells of human rheumatoid tissue maintained in vitro
- Type: cell-based
- Design: synovial lining cells of human rheumatoid tissue maintained in vitro; from tissue; host or cells: human rheumatoid synovial tissue (synovial lining cells), maintained in vitro
- Conditions: mean±SEM
- Description: The percentage decreases in […] activity (mean±SEM) in the synovial lining cells of human rheumatoid tissue maintained in vitro, induced by naphthoquinone of formula I (R=H, X=O), including compounds outside the scope of the invention, are given in Table 2.
Property Label: % decrease in G6PD (%)

Compound: CC1=C(SC[C@H](NC(=O)CC[C@H](N)C(=O)O)C(=O)NCC(=O)O)C(=O)c2ccccc2C1=O [3-glutathionylmenadione, reference compound]
Tested Target: G6PD (Homo sapiens, UniProt P11413)
% decrease in G6PD [%]: 37
--
Compound: COC1=C(OC)C(=O)c2ccccc2C1=O [dimethoxynaphthoquinone, 2,3-dimethoxy-1,4-naphthoquinone]
Tested Target: G6PD (Homo sapiens, UniProt P11413)
% decrease in G6PD [%]: 49
--
Compound: CC1=C(O)C(=O)c2ccccc2C1=O [phthiocol]
Tested Target: G6PD (Homo sapiens, UniProt P11413)
% decrease in G6PD [%]: 47
--
Compound: CC1=CC(=O)c2ccccc2C1=O [menadione, 2-methyl-1,4-naphthoquinone]
Tested Target: G6PD (Homo sapiens, UniProt P11413)
% decrease in G6PD [%]: 38

a: CC1=C(C)C(=O)c2ccccc2C1=O [dimethylnaphthoquinone, 2,3-dimethyl-1,4-naphthoquinone]
b: CC1=C(SCCC(N)C(=O)O)C(=O)c2ccccc2C1=O (stereo not drawn) [3-homocysteinylmenadione, reference compound]
// returns a or b , whichever has the lower % decrease in G6PD Output the label that corresponds to your choice.
b

---

- Experimental Protocol: redox potential (E1/8) against a standard calomel electrode
- Format: physicochemical
- Conditions: Table 2
Property Label: E1/2 (mV)

Here is how some compounds turned out for E1/2 (mV).
Compound: CC1=CC(=O)c2ccccc2C1=O
Test Value: -220

Compound: CC1=C(C)C(=O)c2ccccc2C1=O
Test Value: -290

I: COC1=C(OC)C(=O)c2ccccc2C1=O
II: CC1=C(SC[C@H](NC(=O)CC[C@H](N)C(=O)O)C(=O)NCC(=O)O)C(=O)c2ccccc2C1=O [3-glutathionylmenadione, reference compound]
Decide: I or II , by lowest recorded E1/2 (mV). Respond using the label that marks the chosen record.
I
(I: -250 mV, II: -170 mV)

I: CC1=C(SCCC(N)C(=O)O)C(=O)c2ccccc2C1=O (stereo not drawn) [3-homocysteinylmenadione, reference compound]
II: CC1=C(O)C(=O)c2ccccc2C1=O
Which record would sort first by descending E1/2 (mV), I or II ? Give the chosen item's label as your response.
I
(I: -190 mV, II: -355 mV)
